B1: TPR t1 (parent)
chain: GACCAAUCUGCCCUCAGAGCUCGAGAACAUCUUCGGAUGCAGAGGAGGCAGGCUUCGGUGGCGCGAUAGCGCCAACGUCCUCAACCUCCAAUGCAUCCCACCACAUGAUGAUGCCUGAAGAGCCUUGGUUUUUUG

- Variants of: B1
- assay-overview: polymerase ribozyme fitness, log enrichment relative to wild type (log ratio); higher = more active; in vitro selection for triplet polymerase activity
# thresholds on polymerase ribozyme fitness (log ratio) define classes: range A = under -4, range B = from -4 up to -2, range C = -2 and over

As a guide, the following entries are already answered.
Task: Category of C8U G117U U126C :
Output: range B

Task: Assign a bin to C11G C82U G117A
Output: range C

Task: Kindly identify the class of U14A G63A U125A .
Output: range B

Task: Exercise: read the entry C13G G47U C49U C73A and state which class it falls under.
Output: range B

Task: Kindly identify the class of G39A C73A G93U .
Output: range B

Task: Input U9A A27U C28A U78C U96A U106A G117A ; output its category
Output: range A

Task: Given C12U A18U G47C U130A , name the class its polymerase ribozyme fitness (log ratio) places it in.
Output: range A

Task: Please let me know in which category the item C11A G42U G61U C114G U130A U132G belongs.
Output: range A

# evaluate next
Task: Which band does A27U G60A fall in?
Output: range B

Data origin: the RNAGym collection of RNA variant scans (doi:10.1073/pnas.2313332121)
